Test: Oral availability in rats, inhibitor concentration in plasma
Type: in vivo
Settings: rat, plasma; oral gavage, rats 12.5 mg in 90% saline, 3% ethanol, 7% tween
reported_metric: Cmax (nM)
The reply should be a number in nM, with the unit left off.

Ask | Suppose we examine the molecule Cn1cnc(S(=O)(=O)N(CCN(Cc2cncn2C)c2ccc(C#N)cc2)Cc2ccccc2)c1 [Compound 8d] ; what Cmax value has been reported?
Reply | 740

* * *

Experiment: Liver microsome metabolism (mouse)
Conditions: female, liver microsomes, Microsome t1/2, Mouse, mouse liver microsomes
reported_metric: half-life at 0.71 µM

Ask | Suppose we examine the compound `Cn1cnc(S(=O)(=O)N(CCN(Cc2cncn2C)c2ccc(C#N)cc2)Cc2ccc(-c3ccccc3)cc2)c1` ; what half-life at 0.71 µM value has been reported?
Reply | < 4 min

* * *

Assay: Liver microsome metabolism (mouse)
Conditions: female, microsomes
reported_metric: half-life at 0.71 µM (min)
The reply should be a number in min, with the unit left off.

Ask | Suppose we examine the molecule Cn1cnc(S(=O)(=O)N(CCN(Cc2cncn2C)c2ccc(C#N)cc2)Cc2ccccc2)c1 [Compound 8d] ; what half-life at 0.71 µM value has been reported?
Reply | 9

* * *

Tested on: P. falciparum K1
Test: P. falciparum ED50 determination, [3H]-hypoxanthine incorporation, strain K1
Format: cell-based, Plasmodium falciparum
Conditions: strain K1; concentration decreasing hypoxanthine incorporation into parasites twofold; read-out: ED50 K1
reported_metric: pEC50
Lab note: report pEC50 as minus log10 of the concentration in molar units, number only.

Recorded pEC50, per entry:
mol_smiles: Cn1cnc(S(=O)(=O)N(CCN(Cc2cncn2C)c2ccc(C#N)cc2)Cc2ccccc2)c1
target_entity: P. falciparum K1
number: 6.44

mol_smiles: Cc1cccc(CN(CCN(Cc2cncn2C)c2ccc(C#N)cc2)S(=O)(=O)c2cn(C)cn2)c1
target_entity: P. falciparum K1
number: 6.00

mol_smiles: Cn1cnc(S(=O)(=O)N(CCN(Cc2cncn2C)c2ccc(C#N)cc2)Cc2cccc(C#N)c2)c1
target_entity: P. falciparum K1
number: 5.74

Then this compound:
Ask | Suppose we examine the compound `Cc1ccccc1CN(CCN(Cc1cncn1C)c1ccc(-c2ccccc2)cc1)S(=O)(=O)c1cn(C)cn1` ; what pEC50 value has been reported?
Reply | 5.60

* * *

Test system: P. falciparum K1
Test: P. falciparum ED50 determination, [3H]-hypoxanthine incorporation, strain K1
Format: cell-based, Plasmodium falciparum
Conditions: Plasmodium falciparum, K1, read-out: ED50 K1
pEC50: −log10 of the molar value.
reported_metric: pEC50

molecule: Cc1ccc(CN(CCN(Cc2cncn2C)c2ccc(C#N)cc2)S(=O)(=O)c2cn(C)cn2)cc1 [Compound 8z]
pEC50: < 5.30

Then this molecule:
Ask | Suppose we examine the molecule CC(=O)N(CCN(Cc1cncn1C)c1ccc(C#N)cc1)Cc1ccccc1 [Compound 8j] ; what pEC50 value has been reported?
Reply | < 5.30

* * *

Experiment: Oral availability in rats, inhibitor concentration in plasma
Format: in vivo
Details: rat, plasma; oral administration to rats 12.5 mg
reported_metric: Tmax (min)
The reply should be a number in min, with the unit left off.

Ask | Suppose we examine the compound `Cn1cnc(S(=O)(=O)N(CCN(Cc2cncn2C)c2ccc(C#N)cc2)Cc2ccccc2)c1` ; what Tmax value has been reported?
Reply | 30

* * *

Measured inhibition at 0.005 µM accompanies every entry in the list below.
Target: PfPFT (Plasmodium falciparum, UniProt Q8I503+Q8IHP6)
Sequence (Q8I503 1-521): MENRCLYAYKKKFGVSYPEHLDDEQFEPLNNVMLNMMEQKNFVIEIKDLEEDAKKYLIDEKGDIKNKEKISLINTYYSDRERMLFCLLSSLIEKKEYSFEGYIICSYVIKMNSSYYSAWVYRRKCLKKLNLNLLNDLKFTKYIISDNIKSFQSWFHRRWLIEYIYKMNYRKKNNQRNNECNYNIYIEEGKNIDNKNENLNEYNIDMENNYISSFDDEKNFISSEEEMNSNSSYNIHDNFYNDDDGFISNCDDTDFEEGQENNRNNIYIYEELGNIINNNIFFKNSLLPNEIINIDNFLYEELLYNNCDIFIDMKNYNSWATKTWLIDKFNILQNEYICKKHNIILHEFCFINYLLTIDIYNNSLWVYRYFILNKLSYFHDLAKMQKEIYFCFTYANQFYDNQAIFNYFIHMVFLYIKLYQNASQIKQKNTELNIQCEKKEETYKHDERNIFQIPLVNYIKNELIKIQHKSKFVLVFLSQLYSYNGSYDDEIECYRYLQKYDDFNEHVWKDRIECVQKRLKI
Sequence (Q8IHP6 1-923): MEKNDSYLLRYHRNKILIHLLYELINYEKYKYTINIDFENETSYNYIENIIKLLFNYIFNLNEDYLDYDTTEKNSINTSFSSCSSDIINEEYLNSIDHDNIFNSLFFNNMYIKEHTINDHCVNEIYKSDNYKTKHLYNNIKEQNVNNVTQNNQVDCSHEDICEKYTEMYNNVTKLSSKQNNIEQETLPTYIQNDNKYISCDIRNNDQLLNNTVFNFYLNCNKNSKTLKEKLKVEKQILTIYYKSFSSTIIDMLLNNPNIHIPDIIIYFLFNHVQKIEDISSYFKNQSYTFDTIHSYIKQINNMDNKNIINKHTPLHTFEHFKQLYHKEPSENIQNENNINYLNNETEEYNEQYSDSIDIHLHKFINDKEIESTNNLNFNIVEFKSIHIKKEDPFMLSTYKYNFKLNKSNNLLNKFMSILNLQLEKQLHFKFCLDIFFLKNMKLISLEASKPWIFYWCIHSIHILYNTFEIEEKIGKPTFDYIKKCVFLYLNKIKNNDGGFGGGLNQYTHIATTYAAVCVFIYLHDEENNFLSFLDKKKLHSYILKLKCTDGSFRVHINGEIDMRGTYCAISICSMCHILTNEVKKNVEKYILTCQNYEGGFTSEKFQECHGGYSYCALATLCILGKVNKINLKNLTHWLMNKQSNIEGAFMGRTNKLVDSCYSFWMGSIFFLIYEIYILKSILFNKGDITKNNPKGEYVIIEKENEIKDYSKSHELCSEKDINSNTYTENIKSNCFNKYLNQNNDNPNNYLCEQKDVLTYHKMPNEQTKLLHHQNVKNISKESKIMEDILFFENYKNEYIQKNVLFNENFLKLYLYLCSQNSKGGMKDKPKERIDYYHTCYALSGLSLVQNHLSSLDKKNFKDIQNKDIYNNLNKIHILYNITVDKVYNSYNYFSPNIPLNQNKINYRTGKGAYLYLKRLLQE
Assay: PfPFT inhibition, scintillation proximity assay with partially purified PfPFT
Assay type: biochemical
Conditions: read-out: % Inhibition of PfPFT at 5 nM, inhibitor at 5 nM
The reply should be a number in %, with the unit left off.

mol_smiles: Cn1cncc1CN(CCN(Cc1ccccc1)S(=O)(=O)c1cccc2cccnc12)c1ccc(C#N)cc1
target_entity: PfPFT (Plasmodium falciparum, UniProt Q8I503+Q8IHP6)
inhibition at 0.005 µM (%): 14

Ask | Suppose we examine the compound `CC(C)C(=O)N1CCC(CN(CCN(Cc2cncn2C)c2ccc(C#N)cc2)S(=O)(=O)c2cn(C)cn2)CC1` ; what inhibition at 0.005 µM value has been reported?
Reply | 57

Ask | Suppose we examine the compound `Cn1cnc(S(=O)(=O)N(CCN(Cc2cncn2C)c2ccc(C#N)cc2)Cc2ccccc2)c1` ; what inhibition at 0.005 µM value has been reported?
Reply | 86

Ask | Suppose we examine the compound `Cn1cnc(S(=O)(=O)N(CCN(Cc2cncn2C)c2ccc(C#N)cc2)Cc2cccc(-c3ccccc3)c2)c1` ; what inhibition at 0.005 µM value has been reported?
Reply | 56

Ask | Suppose we examine the compound `Cn1cnc(S(=O)(=O)N(CCN(Cc2cncn2C)c2ccc(C#N)cc2)Cc2ccc(C#N)cc2)c1` ; what inhibition at 0.005 µM value has been reported?
Reply | 24

Ask | Suppose we examine the compound `Cn1cncc1CN(CCN(Cc1ccccc1)S(=O)(=O)c1ccccc1)c1ccc(C#N)cc1` ; what inhibition at 0.005 µM value has been reported?
Reply | 18

Ask | Suppose we examine the compound `Cn1cncc1CN(CCN(Cc1ccccc1)S(=O)(=O)c1ccccn1)c1ccc(C#N)cc1` ; what inhibition at 0.005 µM value has been reported?
Reply | 64
